Biological target: T1, human ferroportin (SLC40A1) fused in frame with GFP, stably expressed in HEK293 cells (human, UniProt Q9NP59 1-571)
T1 sequence (looked up): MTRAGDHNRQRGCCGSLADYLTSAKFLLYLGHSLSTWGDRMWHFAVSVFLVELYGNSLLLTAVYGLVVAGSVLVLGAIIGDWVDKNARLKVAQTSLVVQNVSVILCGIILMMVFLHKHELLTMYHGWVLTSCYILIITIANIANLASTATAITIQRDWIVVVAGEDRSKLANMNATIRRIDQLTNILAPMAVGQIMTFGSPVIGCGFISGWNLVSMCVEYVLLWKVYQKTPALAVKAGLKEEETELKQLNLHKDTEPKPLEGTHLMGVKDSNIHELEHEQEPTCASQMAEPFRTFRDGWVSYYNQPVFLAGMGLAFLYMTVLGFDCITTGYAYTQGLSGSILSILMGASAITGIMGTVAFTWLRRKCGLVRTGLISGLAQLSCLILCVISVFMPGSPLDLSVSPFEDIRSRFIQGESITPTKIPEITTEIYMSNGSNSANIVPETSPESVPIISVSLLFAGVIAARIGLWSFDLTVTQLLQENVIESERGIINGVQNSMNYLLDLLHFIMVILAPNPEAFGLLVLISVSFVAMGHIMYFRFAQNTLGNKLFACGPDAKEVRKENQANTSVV
Assay: cell-based or functional assay
Starred links: 1 amine or outer side, 2 acyl side, 3 side chain; linkers in the order of their positions; H or OH if unused. Non-standard residues stand in square brackets, D forms with d. Groups on a side chain read outwards from the residue. No end group written: not given here. *: point of attachment. C18 diacid = O=C(O)CCCCCCCCCCCCCCCCC(=O)*; Dip = N[C@H](C(=O)O)C(c1ccccc1)c1ccccc1; γGlu = O=C(O)[C@H](CCC(=O)[*:2])N[*:1]; Palmitoyl = CCCCCCCCCCCCCCCC(=O)*; β3hF = N[C@H](CC(=O)O)Cc1ccccc1; Isovaleryl = CC(C)CC(=O)*; AEEA = NCCOCCOCC(=O)O; Ahx = NCCCCCC(=O)O
Reported FPN IC50 is given for each of the following binders.
All answers are understood in nM, so give the number only.

Binder	Readout Unit	FPN IC50
Isovaleryl-LTH[Dip]PK([Ahx-Palmitoyl])[N_Ethyl_Phe] [Isovaleric Acid-L-T-H-[Dpa]-P-[Lys(Ahx_Palm)]-N_Ethyl_Phe]	nM	18.3

Can you share its FPN IC50? I mean this binder: Isovaleryl-LTH[Dip]PK([AEEA-AEEA-γGlu-C18 diacid])[β3hF]-NH2 (SMILES CC(C)CC(=O)N[C@@H](CC(C)C)C(=O)N[C@H](C(=O)N[C@@H](Cc1c[nH]cn1)C(=O)N[C@H](C(=O)N1CCC[C@H]1C(=O)N[C@@H](CCCCNC(=O)COCCOCCNC(=O)COCCOCCNC(=O)CC[C@H](NC(=O)CCCCCCCCCCCCCCCCC(=O)O)C(=O)O)C(=O)N[C@H](CC(N)=O)Cc1ccccc1)C(c1ccccc1)c1ccccc1)[C@@H](C)O) [Isovaleric Acid-L-T-H-[Dpa]-P-[Lys(1PEG2_1PEG2_IsoGlu_C18_Diacid)]-[bhPhe]-NH2]
482

Can you check XETHXPXX (N-term Isovaleric Acid; Dpa4; d[Lys(1PEG2_1PEG2_IsoGlu_C18_Diacid)]6; bhPhe7; C-term NH2) [Isovaleric Acid-E-T-H-[Dpa]-P-d[Lys(1PEG2_1PEG2_IsoGlu_C18_Diacid)]-[bhPhe]-NH2] next?
1490

Can you check XETHXPXX (N-term Isovaleric Acid; Dpa4; Lys(1PEG2_1PEG2_IsoGlu_C18_Diacid)6; C-term N_Ethyl_Phe) [Isovaleric Acid-E-T-H-[Dpa]-P-[Lys(1PEG2_1PEG2_IsoGlu_C18_Diacid)]-N_Ethyl_Phe] next?
408
